Test system: XF498
test_name: NCI tumour cell line growth inhibition, 48 h
Activity calls are given as the source filed them. Rule as the data show it: active = GI50 up to about 1.1 µM and inactive = higher.
Select the matching outcome among 1.0 (active), 0.0 (inactive)

Incoming: Which outcome was entered for the compound Cc1nc2ccccc2c(=O)n1/N=C(\N=N\c1ccccc1)c1ccccc1Cl in this test?
Outgoing: 0.0

Incoming: Which outcome was entered for the compound c1ccc2c(c1)NCc1cc3ccccc3nc1O2 in this test?
Outgoing: 0.0

Incoming: Which outcome was entered for the compound COC1C(O)C(n2ncc3c(SC)nc(SC)nc32)OC1C(O)CO (configuration not stated) in this test?
Outgoing: 0.0

Incoming: Which outcome was entered for the compound CN(C)Cc1[nH]c2ccccc2c1C(=O)c1ccccc1 in this test?
Outgoing: 0.0

Incoming: Which outcome was entered for the compound CC(CNCCCNCCNCCCNCO)[N+](=O)[O-] (configuration not stated) in this test?
Outgoing: 0.0

Incoming: Which outcome was entered for the compound Nc1ncnc2c(C3OC(CO)C(O)C3O)c[nH]c12 (configuration not stated) in this test?
Outgoing: 1.0

Incoming: Which outcome was entered for the compound COc1ccc(/C=C\c2cc(OC)c(OC)c(OC)c2)cc1OC(=O)CC(N)C(=O)O (configuration not stated) in this test?
Outgoing: 1.0

Incoming: Which outcome was entered for the compound CC(=O)Nc1ccc(/C=N\N2C(=O)c3ccccc3C2=O)cc1 in this test?
Outgoing: 0.0

Incoming: Which outcome was entered for the compound O=C1Nc2ccc([N+](=O)[O-])cc2/C1=N/Nc1ccc([N+](=O)[O-])cc1 in this test?
Outgoing: 0.0

Incoming: Which outcome was entered for the compound CC(=O)/C(=C\c1ccccc1O)C(=O)Nc1ccccc1C in this test?
Outgoing: 0.0

Incoming: Which outcome was entered for the compound Cc1cc2c(cc1C)[n+]([O-])c(C(=O)/C=C/c1ccccc1[N+](=O)[O-])c(C)[n+]2[O-] in this test?
Outgoing: 0.0

Incoming: Which outcome was entered for the compound COc1cc2c(cc1O)[C@H](C)C(c1ccc(OC)c(OC)c1)O2 (some centres not stated) in this test?
Outgoing: 0.0

Incoming: Which outcome was entered for the compound O=C1c2ccccc2C(=O)N1CCN(CCN1C(=O)c2ccccc2C1=O)Cc1ccccc1 in this test?
Outgoing: 0.0

Incoming: Which outcome was entered for the compound COC1OC(CO)C(O)C(OC(C)=O)C1NC(=O)N(CCCl)N=O (configuration not stated) in this test?
Outgoing: 0.0

Incoming: Which outcome was entered for the compound O=[PH](O)c1cccnc1 in this test?
Outgoing: 0.0

Incoming: Which outcome was entered for the compound COC(=O)c1c2c(cc3c1CC1(Cc4cc5c(c(C(C)=O)c4C1)CCC5)C3)CCC2 (configuration not stated) in this test?
Outgoing: 0.0

Incoming: Which outcome was entered for the compound COc1cc2cccc(NC(=O)c3cc(OC)c(OC)c(OC)c3Br)c2cc1OC in this test?
Outgoing: 0.0

Incoming: Which outcome was entered for the compound COCCOCOc1ccc(OCOCCOC)c2c1C(=O)c1ccccc1C2=O in this test?
Outgoing: 0.0

Incoming: Which outcome was entered for the compound CCOCC(=O)N[C@H]1CCc2cc(OC)c(OC)c(OC)c2-c2ccc(SC)c(=O)cc21 in this test?
Outgoing: 1.0

Incoming: Which outcome was entered for the compound C[C@]12CCC(=O)C=C1CC[C@@H]1C2CC[C@]2(C)c3nn(-c4ccccc4)nc3CC12 (some centres not stated) in this test?
Outgoing: 0.0

Incoming: Which outcome was entered for the compound C=C(/C=C/C=C(\CO)CCC=C(C)C)[C@H]1CCC2([C@H](CCCO)/C(=C(/C)C=O)CC[C@]2(C)O)[C@H]1O (some centres not stated) in this test?
Outgoing: 0.0

Incoming: Which outcome was entered for the compound Cc1ccc(-n2c(C)nc3c2C(=O)c2ccccc2C3=O)cc1 in this test?
Outgoing: 0.0
